ASSAY_SUMMARY: NBI-750142 concentration in cynomolgus monkey plasma by LC-MS/MS
Type: in vivo, cynomolgus monkeys (Macaca fascicularis)
TEST_SETTINGS: cynomolgus monkey, intravenous, 0.26 mg/kg, LC206, 0.26 mg/kg i.v.
REPORTED_ENDPOINT: concentration at 1 min (ng/mL)
Give just the numeric value; ng/mL need not be written.

Inquiry: // query concentration at 1 min value for entry COc1cc2c(cc1OC)[C@H]1CN(C)[C@H](CC(C)(C)C)CN1CC2 [NBI-750142]
Reply text: 119

---

ASSAY_SUMMARY: NBI-750142 concentration in cynomolgus monkey plasma by LC-MS/MS
Type: in vivo, cynomolgus monkeys (Macaca fascicularis)
TEST_SETTINGS: cynomolgus monkey, intravenous, 0.78 mg/kg, GC786, 0.78 mg/kg i.v.
REPORTED_ENDPOINT: concentration at 150 min (ng/mL)
Give just the numeric value; ng/mL need not be written.

Inquiry: // query concentration at 150 min value for entry COc1cc2c(cc1OC)[C@H]1CN(C)[C@H](CC(C)(C)C)CN1CC2 [NBI-750142]
Reply text: 76

---

ASSAY_SUMMARY: NBI-750142 concentration in cynomolgus monkey plasma by LC-MS/MS
Type: in vivo, cynomolgus monkeys (Macaca fascicularis)
TEST_SETTINGS: cynomolgus monkey, intravenous, 0.78 mg/kg, GC786, 0.78 mg/kg i.v.
Experimental: During each scan, whole blood PK samples were collected (in K2 EDTA tubes) at pre-dose (−5 min), and post-dose at 1 (end of bolus), 30, 60 (just prior to [^18F]AV-133 radiopharmaceutical administration), 90, 120, 150, 180 (end of scan) minutes after test article administration. PK samples were approximately 1 mL each (8 mL total, including pre-dose sample). […] NBI-750142 concentration in cynomolgus monkey plasma samples was analyzed using a qualified LC-MS/MS bioanalytical method. […]
REPORTED_ENDPOINT: concentration at 30 min (ng/mL)
Give just the numeric value; ng/mL need not be written.

Inquiry: // query concentration at 30 min value for entry COc1cc2c(cc1OC)[C@H]1CN(C)[C@H](CC(C)(C)C)CN1CC2
Reply text: 63

---

ASSAY_SUMMARY: NBI-750142 concentration in cynomolgus monkey plasma by LC-MS/MS
Format: in vivo, cynomolgus monkeys (Macaca fascicularis)
TEST_SETTINGS: cynomolgus monkey, intravenous, 0.26 mg/kg, GC786, 0.26 mg/kg i.v.
REPORTED_ENDPOINT: concentration at 90 min
Returns: string containing the number followed by the unit.

Inquiry: // query concentration at 90 min value for entry COc1cc2c(cc1OC)[C@H]1CN(C)[C@H](CC(C)(C)C)CN1CC2
Reply text: 6.85 ng/mL

---

ASSAY_SUMMARY: NBI-750142 concentration in cynomolgus monkey plasma by LC-MS/MS
Type: in vivo, cynomolgus monkeys (Macaca fascicularis)
TEST_SETTINGS: cynomolgus monkey, intravenous, 0.26 mg/kg, GC786, 0.26 mg/kg i.v.
REPORTED_ENDPOINT: concentration at 30 min (µg/mL)
Give just the numeric value; µg/mL need not be written.

Inquiry: // query concentration at 30 min value for entry COc1cc2c(cc1OC)[C@H]1CN(C)[C@H](CC(C)(C)C)CN1CC2
Reply text: 0.0184
